Below are IC50 values recorded for JAK2 (Homo sapiens).

Compound	IC50
Cn1cc(-c2cc3nccn3c(-c3cnn(C4(CC=C(F)F)CN(S(=O)(=O)C(F)(F)F)C4)c3)n2)cn1	< 10 nM

Query for JAK2 (Homo sapiens): what IC50 does the record show for CC[C@H](CCF)n1cc(-c2nc(-c3cnn(C)c3)cc3nccn23)cn1 ?
10 to 100 nM

* * *

Lab note: IC50 readings collected with JAK2 (Homo sapiens) for the following compounds.

Compound	Assay Target	IC50
Cn1cc(-c2cc3nccn3c(-c3ccn([C@@H](CCF)[C@@H]4CC4(F)F)c3)n2)cn1	JAK2 (Homo sapiens)	10 to 100 nM
COC(=O)CC(c1ccccc1)n1cc(-c2nc(-c3cnn(C)c3)cc3nccn23)cn1 (centres unmarked)	JAK2 (Homo sapiens)	100 to 1000 nM
CC(C1CC1)n1cc(-c2nc(-c3cnn(C)c3)cc3nccn23)cn1 (centres unmarked)	JAK2 (Homo sapiens)	100 to 1000 nM
Cn1cc(-c2cc3nccn3c(-c3cnn(C(CCO)c4ccc(F)cc4)c3)n2)cn1 (centres unmarked)	JAK2 (Homo sapiens)	100 to 1000 nM
CC(C)S(=O)(=O)N1CC(CCF)(n2cc(-c3nc(-c4cnn(C)c4)cc4nccn34)cn2)C1	JAK2 (Homo sapiens)	100 to 1000 nM

Give IC50 (JAK2 (Homo sapiens)) of the following compound: Cc1cc(-c2cc3nccn3c(-c3cnn(C4(CCF)CN(S(=O)(=O)C(F)(F)F)C4)c3)n2)[nH]n1
10 to 100 nM

Please state recorded IC50 (tested on JAK2 (Homo sapiens)) of CC[C@@H](CCF)n1cc(-c2nc(-c3cnn(C)c3)cc3nccn23)cn1
10 to 100 nM

Given the entry Cn1cc(-c2cc3nccn3c(-c3ccn(C4(CCF)CN(S(=O)(=O)C(F)(F)F)C4)c3)n2)cn1 , what IC50 was observed with JAK2 (Homo sapiens)?
10 to 100 nM

* * *

- Assay Target: JAK1 (Homo sapiens)
- Sequence (P23458 whole entry): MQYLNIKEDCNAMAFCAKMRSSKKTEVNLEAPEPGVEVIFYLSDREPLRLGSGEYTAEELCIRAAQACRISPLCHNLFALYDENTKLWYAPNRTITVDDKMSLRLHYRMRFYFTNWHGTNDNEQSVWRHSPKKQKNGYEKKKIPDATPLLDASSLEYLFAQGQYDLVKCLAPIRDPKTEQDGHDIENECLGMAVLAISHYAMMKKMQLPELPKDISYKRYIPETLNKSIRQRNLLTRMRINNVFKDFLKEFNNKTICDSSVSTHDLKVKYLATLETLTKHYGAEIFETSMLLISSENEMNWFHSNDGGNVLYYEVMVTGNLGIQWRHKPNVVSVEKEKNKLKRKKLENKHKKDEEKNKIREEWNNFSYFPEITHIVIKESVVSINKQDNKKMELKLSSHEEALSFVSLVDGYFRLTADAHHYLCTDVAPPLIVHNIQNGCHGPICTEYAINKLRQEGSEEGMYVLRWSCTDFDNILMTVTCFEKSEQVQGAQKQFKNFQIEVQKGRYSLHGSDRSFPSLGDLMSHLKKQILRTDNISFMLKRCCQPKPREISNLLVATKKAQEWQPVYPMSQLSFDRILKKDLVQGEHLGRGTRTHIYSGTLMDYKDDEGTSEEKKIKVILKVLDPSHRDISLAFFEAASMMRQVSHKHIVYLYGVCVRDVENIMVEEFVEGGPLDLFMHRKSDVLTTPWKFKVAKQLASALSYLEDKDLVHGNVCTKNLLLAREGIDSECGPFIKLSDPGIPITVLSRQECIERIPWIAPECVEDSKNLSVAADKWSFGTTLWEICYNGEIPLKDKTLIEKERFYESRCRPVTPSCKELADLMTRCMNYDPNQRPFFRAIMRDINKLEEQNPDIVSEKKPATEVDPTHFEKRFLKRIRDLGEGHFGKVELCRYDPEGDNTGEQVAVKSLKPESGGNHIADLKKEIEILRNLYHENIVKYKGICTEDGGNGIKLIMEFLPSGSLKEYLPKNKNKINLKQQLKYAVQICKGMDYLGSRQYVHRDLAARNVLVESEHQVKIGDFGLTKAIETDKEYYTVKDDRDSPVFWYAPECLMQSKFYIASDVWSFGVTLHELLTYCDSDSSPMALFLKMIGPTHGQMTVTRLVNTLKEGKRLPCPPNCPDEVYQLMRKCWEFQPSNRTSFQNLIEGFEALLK
pIC50: −log10 of the molar value.
pIC50 for assorted compounds

Form field: pIC50 recorded for COC(=O)CC(c1ccccc1)n1cc(-c2nc(-c3cnn(C)c3)cc3nccn23)cn1 (stereo not shown) with JAK1 (Homo sapiens) (enter value)
6.00 to 7.00

Find pIC50 (JAK1 (Homo sapiens)) for the entry CCOCCC1(n2cc(-c3nc(-c4cnn(C)c4)cc4nccn34)cn2)CN(S(=O)(=O)C(F)(F)F)C1
7.00 to 8.00

Identify the measured pIC50 of COCCC1(n2cc(-c3nc(-c4cnn(C)c4)cc4nccn34)cn2)CN(S(=O)(=O)C(F)(F)F)C1 for JAK1 (Homo sapiens).
7.00 to 8.00

Given the entry COCCC(C1CCCCC1)n1cc(-c2nc(-c3cnn(C)c3)cc3nccn23)cn1 (stereo not shown) , what pIC50 was observed with JAK1 (Homo sapiens)?
< 6.00

* * *

pIC50: −log10 of the molar value.
This document collects pIC50 values reported for JAK2 (Homo sapiens, UniProt O60674).

// known answers, use as guide
Compound	Property Name	Obs Value
Cn1cc(-c2cc3nccn3c(-c3cnn(C4(CCO)CN(S(=O)(=O)C(F)(F)F)C4)c3)n2)cn1 [Example 3]	pIC50	6.00 to 7.00
Cn1cc(-c2cc3nccn3c(-c3ccn([C@@H](C[C@@H](O)C(F)(F)F)C4CC4)c3)n2)cn1 [Example 101]	pIC50	6.00 to 7.00
CCn1cc(-c2nc(-c3cnn(C)c3)cc3nccn23)cn1 [Example 5]	pIC50	6.00 to 7.00
Cn1cc(-c2cc3nccn3c(-c3cnn(C(C/C=C\F)C4CC4)c3)n2)cn1 (stereo not shown) [Example 44]	pIC50	7.00 to 8.00
CCOC(=O)CC(C1CC1)n1cc(-c2nc(-c3cnn(C)c3)cc3nccn23)cn1 (stereo not shown) [Example 12]	pIC50	< 6.00

JAK2 (Homo sapiens, UniProt O60674) / pIC50 / CCCC(C1CC1)n1cc(-c2nc(-c3cnn(C)c3)cc3nccn23)cn1 (stereo not shown) [Example 15] : value?
7.00 to 8.00

What reported pIC50 corresponds to Cn1cc(-c2cc3nccn3c(-c3cnn(C(CCF)C4CCC4)c3)n2)cn1 (stereo not shown) [Example 69] on JAK2 (Homo sapiens, UniProt O60674)?
7.00 to 8.00

Find the measured pIC50: item C[C@@H](O)C[C@H](C1CC1)n1cc(-c2nc(-c3cnn(C)c3)cc3nccn23)cn1 [Example 40] , target or system JAK2 (Homo sapiens, UniProt O60674).
6.00 to 7.00

Return pIC50 measured with JAK2 (Homo sapiens, UniProt O60674) given this compound: COCCC(c1ccc(F)cc1)n1cc(-c2nc(-c3cnn(C)c3)cc3nccn23)cn1 (stereo not shown) [Example 82]
Sequence (O60674 whole entry): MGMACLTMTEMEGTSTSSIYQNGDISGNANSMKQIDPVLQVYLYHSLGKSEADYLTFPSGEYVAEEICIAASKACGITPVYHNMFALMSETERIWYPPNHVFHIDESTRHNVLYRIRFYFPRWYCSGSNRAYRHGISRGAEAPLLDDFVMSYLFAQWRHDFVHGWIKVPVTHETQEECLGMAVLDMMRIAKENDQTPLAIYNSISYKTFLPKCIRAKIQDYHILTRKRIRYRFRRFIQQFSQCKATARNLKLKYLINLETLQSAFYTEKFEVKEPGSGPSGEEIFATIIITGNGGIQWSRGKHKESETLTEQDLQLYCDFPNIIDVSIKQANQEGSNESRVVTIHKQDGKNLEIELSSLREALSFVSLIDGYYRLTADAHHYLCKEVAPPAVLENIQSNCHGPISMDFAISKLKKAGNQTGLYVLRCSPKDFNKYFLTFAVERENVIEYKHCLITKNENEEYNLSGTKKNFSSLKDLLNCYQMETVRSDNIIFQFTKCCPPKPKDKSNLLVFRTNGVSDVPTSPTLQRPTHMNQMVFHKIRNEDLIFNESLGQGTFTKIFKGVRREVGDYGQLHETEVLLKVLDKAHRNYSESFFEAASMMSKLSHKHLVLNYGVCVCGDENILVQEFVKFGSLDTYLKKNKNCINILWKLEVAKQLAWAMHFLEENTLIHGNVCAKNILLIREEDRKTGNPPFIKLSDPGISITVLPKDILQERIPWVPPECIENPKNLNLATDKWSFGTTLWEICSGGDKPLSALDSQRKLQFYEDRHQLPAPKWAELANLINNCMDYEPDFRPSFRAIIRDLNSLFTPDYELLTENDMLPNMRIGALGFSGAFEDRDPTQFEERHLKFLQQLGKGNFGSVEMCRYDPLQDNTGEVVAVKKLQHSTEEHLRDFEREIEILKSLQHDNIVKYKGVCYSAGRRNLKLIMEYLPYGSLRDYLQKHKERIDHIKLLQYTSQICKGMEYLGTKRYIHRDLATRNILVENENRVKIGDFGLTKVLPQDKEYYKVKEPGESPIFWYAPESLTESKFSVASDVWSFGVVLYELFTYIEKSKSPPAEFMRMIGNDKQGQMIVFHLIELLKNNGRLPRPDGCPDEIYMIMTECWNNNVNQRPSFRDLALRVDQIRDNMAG
6.00 to 7.00

Could you share what pIC50 was measured for CCC1(n2cc(-c3nc(-c4cnn(C)c4)cc4nccn34)cn2)CN(S(=O)(=O)C(F)(F)F)C1 [Example 20] , tested on JAK2 (Homo sapiens, UniProt O60674)?
7.00 to 8.00

Kindly state the measured pIC50 obtained for Cn1cc(-c2cc3nccn3c(-c3ccn([C@@H](C[C@H](O)C(F)(F)F)C4CC4)c3)n2)cn1 [Example 102] with JAK2 (Homo sapiens, UniProt O60674).
6.00 to 7.00
